Each entry below carries its reported logP.
Where a SMILES comes first, the peptide text is derived from it. The star is where a group is joined. NHtBu = CC(C)(C)N*
Form: value (number only, do not type unit).

Sample answers from the record:
COc1ccc(Cc2cccc(-c3c(O)c4ccc(Cl)cc4[nH]c3=O)c2)cc1; 4.8
O=C(Cc1ccccc1)Nc1cccc(C(F)(F)F)c1; 3.84
Nc1nc(NCCO)c(Cl)nc1[N+](=O)[O-]; 0.12
O=[N+]([O-])C=C1NCCN1Cc1ccc(Cl)cc1; 0.99
CCOC(=O)Oc1cccc(C2(C(=O)CC)CCN(C)CC2)c1; 1.29

Please give the measured logP for this compound: O=C(O)c1cccc2cccc(C(=O)O)c12 1.98

Reported logP, compound CC(=O)NC(C)C(=O)NC(CCC(=O)O)C(=O)NC(C)C(=O)NC(C)(C)C (stereo not drawn) (Ac-Ala-Glu-Ala-NHtBu; configuration not given here) : ____ -0.67

Consider the compound shown here: NC(Cc1cccc2ccccc12)C(=O)O (centres undefined) What is its recorded logP? -0.22
